Measured self-splicing fitness (ln) of individual entries
Assay: self-splicing fitness, log relative to wild type (ln ratio); higher = more splicing; Tetrahymena group I intron in knt gene, E. coli kanamycin selection, DiMSum; sequences stand for … in CUCUCU…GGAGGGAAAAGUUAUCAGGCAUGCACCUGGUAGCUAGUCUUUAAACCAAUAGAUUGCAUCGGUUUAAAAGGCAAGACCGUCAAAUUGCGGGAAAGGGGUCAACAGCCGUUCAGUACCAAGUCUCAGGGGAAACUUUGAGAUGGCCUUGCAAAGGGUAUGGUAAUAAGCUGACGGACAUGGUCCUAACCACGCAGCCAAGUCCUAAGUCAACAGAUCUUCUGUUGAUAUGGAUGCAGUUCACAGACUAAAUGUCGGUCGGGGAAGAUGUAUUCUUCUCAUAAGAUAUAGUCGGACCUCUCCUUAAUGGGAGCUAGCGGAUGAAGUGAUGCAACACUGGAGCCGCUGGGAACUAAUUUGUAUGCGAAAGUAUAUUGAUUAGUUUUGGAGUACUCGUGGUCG;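 note: selection with 25 µg/mL kanamycin versus none on LB agar overnight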
Settings: 30 °C
// print number alone

Worked cases, answers included:
>>> df
         query_sequence  measured_value
0  CUAGAGCAAUAUUACGGCGU           -4.02
1  UUACAGCAAUAUUACGAAUG           -1.46
2  AAGAAGCAAUAUUACGGCUA          -0.552
3  UGUGAGCAAUAUUACGUGCU           -3.34
4  CCUAAGCAAUAUUACGUUAA           -3.22

Now consider a different sequence.
Which self-splicing fitness (ln) is listed for `GUCUAGCAAUAUUACGCUGG` ?
-2.84

* * *

Assay: self-splicing fitness, log relative to wild type (ln ratio); higher = more splicing; Tetrahymena group I intron in knt gene, E. coli kanamycin selection, DiMSum; sequences stand for … in CUCUCU…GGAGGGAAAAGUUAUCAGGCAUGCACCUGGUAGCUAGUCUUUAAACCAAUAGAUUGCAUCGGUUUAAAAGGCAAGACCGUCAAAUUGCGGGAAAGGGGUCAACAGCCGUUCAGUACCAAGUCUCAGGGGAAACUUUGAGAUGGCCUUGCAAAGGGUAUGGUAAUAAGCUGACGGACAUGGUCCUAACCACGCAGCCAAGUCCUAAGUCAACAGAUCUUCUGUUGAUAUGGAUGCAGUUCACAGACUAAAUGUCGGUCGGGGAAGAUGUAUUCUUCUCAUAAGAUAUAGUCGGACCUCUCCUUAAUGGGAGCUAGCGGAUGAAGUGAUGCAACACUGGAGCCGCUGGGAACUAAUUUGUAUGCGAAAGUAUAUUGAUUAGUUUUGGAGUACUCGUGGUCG
Settings: 37 °C
Collected self-splicing fitness (ln) values appear next to each entry.

In [3]: df
Out[3]:
         query_sequence  measured_value
0  UAUCAGCAAUAUUACGCGGA         -0.0724

Now for another entry.
Value lookup for self-splicing fitness (ln); key = `ACCCAGCAAUAUUACGGACU`
0.0991

* * *

Assay: self-splicing fitness, log relative to wild type (ln ratio); higher = more splicing; Tetrahymena group I intron in knt gene, E. coli kanamycin selection, DiMSum; sequences stand for … in CUCUCU…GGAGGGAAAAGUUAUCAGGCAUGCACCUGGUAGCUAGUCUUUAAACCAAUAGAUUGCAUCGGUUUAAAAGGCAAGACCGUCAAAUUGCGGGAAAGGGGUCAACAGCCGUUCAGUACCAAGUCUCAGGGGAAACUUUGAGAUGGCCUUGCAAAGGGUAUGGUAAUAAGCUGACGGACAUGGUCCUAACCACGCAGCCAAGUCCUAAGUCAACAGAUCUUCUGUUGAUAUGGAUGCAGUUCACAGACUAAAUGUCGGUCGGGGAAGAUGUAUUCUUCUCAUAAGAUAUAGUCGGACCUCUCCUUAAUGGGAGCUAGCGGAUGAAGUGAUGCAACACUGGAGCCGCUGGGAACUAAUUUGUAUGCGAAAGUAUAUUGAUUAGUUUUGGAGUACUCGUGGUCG
Conditions: 37 °C
Measured endpoint: self-splicing fitness (ln)
The response must contain the number and no unit.

Worked examples follow.
         query_sequence  measured_value
0  UCGUAGCAAUAUUACGCCAU          -0.949
1  CGACAGCAAUAUUACGACUG         -0.0407
2  AUGUAGCAAUAUUACGCAGU           -1.29
3  AGUUAGCAAUAUUACGACCG          -0.166

Query: self-splicing fitness (ln); subject: `AAGAAGCAAUAUUACGAUCU`
-0.373

* * *

Assay: self-splicing fitness, log relative to wild type (ln ratio); higher = more splicing; Tetrahymena group I intron in knt gene, E. coli kanamycin selection, DiMSum; sequences stand for … in CUCUCU…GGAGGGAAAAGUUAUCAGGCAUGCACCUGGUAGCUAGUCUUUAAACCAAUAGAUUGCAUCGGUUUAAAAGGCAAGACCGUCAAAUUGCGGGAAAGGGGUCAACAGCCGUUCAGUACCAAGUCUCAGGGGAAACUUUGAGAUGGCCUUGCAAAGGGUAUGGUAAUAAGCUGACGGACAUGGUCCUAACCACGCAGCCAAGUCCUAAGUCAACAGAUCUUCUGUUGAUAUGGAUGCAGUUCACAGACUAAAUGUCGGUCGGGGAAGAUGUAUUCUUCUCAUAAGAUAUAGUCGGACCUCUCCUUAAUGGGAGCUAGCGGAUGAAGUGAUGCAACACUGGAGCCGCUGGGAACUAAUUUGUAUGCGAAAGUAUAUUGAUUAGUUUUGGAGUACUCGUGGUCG
Conditions: 30 °C
Binary call on self-splicing fitness (ln): Satisfied from -1 upward, Not satisfied beneath that.

In [3]: df
Out[3]:
         query_sequence       category
0  GGUGAGCAAUAUUACGCAGG  Not satisfied
1  AGCAAGCAAUAUUACGUCAC  Not satisfied
2  UGUCAGCAAUAUUACGCACC  Not satisfied

Hi team, for `CAUGAGCAAUAUUACGUACA` , is the recorded self-splicing fitness (ln) at or above -1?
Not satisfied

Tell me whether self-splicing fitness (ln) is at least -1 here: `GAAUAGCAAUAUUACGAAAG`
Not satisfied

Would you say `CACUAGCAAUAUUACGGCGG` shows self-splicing fitness (ln) at minimum -1?
Satisfied

Is reported self-splicing fitness (ln) greater than or equal to -1 here: `UGGAAGCAAUAUUACGUGCG`
Satisfied

Record `AUCUAGCAAUAUUACGUCAG` ; criterion: self-splicing fitness (ln) no lower than -1. Met?
Not satisfied

Quick check, self-splicing fitness (ln) >= -1? `CCAUAGCAAUAUUACGCCAU`
Not satisfied

Can `GUCGAGCAAUAUUACGGCAA` be said to have self-splicing fitness (ln) at or above -1?
Not satisfied

Hi team, for `UGUAAGCAAUAUUACGCGGG` , is the recorded self-splicing fitness (ln) at or above -1?
Not satisfied

* * *

Test: self-splicing fitness, log relative to wild type (ln ratio); higher = more splicing; Tetrahymena group I intron in knt gene, E. coli kanamycin selection, DiMSum; sequences stand for … in CUCUCU…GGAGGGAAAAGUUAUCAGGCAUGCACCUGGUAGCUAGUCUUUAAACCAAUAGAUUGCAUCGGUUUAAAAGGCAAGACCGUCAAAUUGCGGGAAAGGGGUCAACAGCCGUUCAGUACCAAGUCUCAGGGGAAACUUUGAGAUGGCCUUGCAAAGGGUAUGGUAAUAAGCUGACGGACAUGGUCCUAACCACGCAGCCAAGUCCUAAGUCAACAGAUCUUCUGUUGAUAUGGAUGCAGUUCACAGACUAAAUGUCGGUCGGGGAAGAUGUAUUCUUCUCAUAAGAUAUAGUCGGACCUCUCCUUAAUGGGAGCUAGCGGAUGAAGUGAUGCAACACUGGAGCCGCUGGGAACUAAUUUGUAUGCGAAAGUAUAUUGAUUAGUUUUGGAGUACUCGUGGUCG
Conditions: 37 °C
Just so you know, the groups by self-splicing fitness (ln) go like this: group 1: < -2; group 2: ≥ -2 and < -1; group 3: ≥ -1

>>> print(df.to_string())
         query_sequence  category
0  AGCGAGCAAUAUUACGGACG   group 2
1  GAAUAGCAAUAUUACGCGGA   group 2
2  AACUAGCAAUAUUACGGGAG   group 2
3  CAAAAGCAAUAUUACGACGG   group 3
4  GAAUAGCAAUAUUACGUACG   group 2

Which band does `CAGUAGCAAUAUUACGGCGA` fall in?
group 2

Hi, small favor: classify `GUAGAGCAAUAUUACGACCU` by its self-splicing fitness (ln) when you get a moment.
group 3

* * *

Listed below: self-splicing fitness (ln) values for each entry.
Assay: self-splicing fitness, log relative to wild type (ln ratio); higher = more splicing; Tetrahymena group I intron in knt gene, E. coli kanamycin selection, DiMSum; sequences stand for … in CUCUCU…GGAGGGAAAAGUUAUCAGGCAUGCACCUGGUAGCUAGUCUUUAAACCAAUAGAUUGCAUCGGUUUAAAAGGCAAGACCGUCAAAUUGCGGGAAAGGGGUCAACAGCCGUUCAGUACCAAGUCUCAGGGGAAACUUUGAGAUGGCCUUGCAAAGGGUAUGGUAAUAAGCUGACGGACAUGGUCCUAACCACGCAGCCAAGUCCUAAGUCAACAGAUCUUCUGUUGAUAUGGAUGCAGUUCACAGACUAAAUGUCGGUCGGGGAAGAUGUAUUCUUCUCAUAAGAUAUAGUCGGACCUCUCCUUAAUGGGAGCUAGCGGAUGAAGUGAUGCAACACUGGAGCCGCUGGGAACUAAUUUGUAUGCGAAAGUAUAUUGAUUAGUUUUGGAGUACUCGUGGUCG
Conditions: 30 °C
Output spec: single numeric token, no unit.

Worked set:
>>> print(df.to_string())
         query_sequence           measured_endpoint  measured_value
0  UGGCAGCAAUAUUACGAGAA  self-splicing fitness (ln)           -1.11
1  UGAAAGCAAUAUUACGGUUU  self-splicing fitness (ln)           -1.87
2  CGUGAGCAAUAUUACGAAAG  self-splicing fitness (ln)           -1.89
3  ACUAAGCAAUAUUACGAUGU  self-splicing fitness (ln)           -1.62
4  ACCUAGCAAUAUUACGGGUA  self-splicing fitness (ln)           -1.76
5  UCAAAGCAAUAUUACGCGUU  self-splicing fitness (ln)           -3.65
6  UGCGAGCAAUAUUACGCCAG  self-splicing fitness (ln)            -4.1
7  UUCCAGCAAUAUUACGGCCG  self-splicing fitness (ln)           -2.49
8  CCCGAGCAAUAUUACGGUCG  self-splicing fitness (ln)           -3.56

Name the recorded self-splicing fitness (ln) for `CAUGAGCAAUAUUACGUCGA` .
-2.57
